System: Heat shock protein HSP 90-alpha (Homo sapiens, UniProt P07900) | Read-out: pIC50 | Origin: multiple publications
pIC50: −log10 of the molar value.

Look over these answered cases.
>  <Compound>
CCNC(=O)c1cc(C(=O)Nc2c(C(=O)NCC)noc2-c2cc(C(C)C)c(O)cc2O)on1

>  <Assay Readout>
pIC50

>  <Recorded Result>
> 7.00

$$$$
>  <Compound>
COc1cccc(C(=O)NC2CC3CCC(C2)N3c2ccc(C(=O)N[C@@H]3CCN(C)C3)cn2)c1C (some centres unmarked)

>  <Assay Readout>
pIC50

>  <Recorded Result>
> 6.30

$$$$

Case CCCNc1cc(C(=O)N[C@H]2C[C@H]3CC[C@@H](C2)N3c2ccc(C(=O)C3CC3)cn2)c(Br)cc1C(N)=O , Heat shock protein HSP 90-alpha (Homo sapiens, UniProt P07900), pIC50 recorded as > 6.30

Case COc1c(C)cnc(CN2c3nc(N)ncc3N(CC(F)F)C(=O)[C@H]2C)c1C , Heat shock protein HSP 90-alpha (Homo sapiens, UniProt P07900), pIC50 recorded as 6.72

Case COCCCn1nnnc1-c1cc(-c2cccc(C(=O)NCCCN3CCOCC3)c2)c(O)cc1O , Heat shock protein HSP 90-alpha (Homo sapiens, UniProt P07900), pIC50 recorded as < 4.30

Case CCN(CC)CCOc1ccc([C@H](C)NC(=O)c2ccc(N3C4CCC3CC(NC(=O)c3cccc(OC)c3C)C4)nc2)cc1 (some centres unmarked) , Heat shock protein HSP 90-alpha (Homo sapiens, UniProt P07900), pIC50 recorded as > 6.30

Case CCCc1c(OC)cccc1C(=O)N[C@H]1C[C@H]2CC[C@@H](C1)N2c1ccc(C(=O)NCc2ccccc2)cn1 , Heat shock protein HSP 90-alpha (Homo sapiens, UniProt P07900), pIC50 recorded as 5.00 to 5.70

Case CC[C@@H](C)Nc1cc(C(=O)NC2CC3CCC(C2)N3c2ccc(C(=O)C3CC3)cn2)c(Br)cc1C(N)=O (some centres unmarked) , Heat shock protein HSP 90-alpha (Homo sapiens, UniProt P07900), pIC50 recorded as > 6.30

====

pIC50: −log10 of the molar value.
System: UniProt:P07900 | Read-out: pIC50 | Origin: multiple publications

>  <Compound>
COc1c(C)cnc(CN2c3nc(N)ncc3NC(=O)[C@H]2Cc2ccccc2)c1C

>  <pIC50>
6.28

$$$$
>  <Compound>
C[C@H](NC(=O)c1ccc(N2C3CCC2CC(NC(=O)c2ccc(C(N)=O)c(NCCS(C)(=O)=O)c2)C3)nc1)c1ccc(N2CCN(C)CC2)cc1 (stereo partly shown)

>  <pIC50>
> 6.30

$$$$
>  <Compound>
CC(C)(C)CNCCCn1c(Sc2cc3c(cc2I)OCO3)nc2c(N)nccc21

>  <pIC50>
6.00 to 7.00

$$$$

--- query ---
Case COc1cccc(C(=O)N[C@H]2C[C@H]3CC[C@@H](C2)N3c2ccc(C(=O)NCc3cc(F)ccc3F)cn2)c1C , UniProt:P07900, pIC50 recorded as 6.00 to 6.30

====

System: Heat shock protein HSP 90-alpha (Homo sapiens, UniProt P07900) | Read-out: IC50 | Origin: multiple publications

Look over these answered cases.
>  <Molecule>
CC(=O)c1ccc(N2C3CCC2CC(NC(=O)c2cc(N[C@H]4CC[C@H](O)CC4)c(C(N)=O)cc2C)C3)nc1 (some centres unmarked)

>  <IC50>
< 500 nM

$$$$
>  <Molecule>
CC(C)[C@@H](C)Nc1cc(C(=O)NC2CC3CCC(C2)N3c2ccc(C(=O)C3CC3)cn2)ccc1C(N)=O (some centres unmarked)

>  <IC50>
< 500 nM

$$$$
>  <Molecule>
COCCCn1nnnc1-c1cc(-c2cccc(C)c2)c(O)cc1O

>  <IC50>
10000 to 50000 nM

$$$$
>  <Molecule>
COc1cccc(C(=O)NC2CC3CCC(C2)N3c2ccc(C(=O)N[C@@H]3CC4CCC3C4)cn2)c1C (some centres unmarked)

>  <IC50>
1000 to 2000 nM

$$$$

Case CCC[C@H]1C(=O)Nc2cnc(N)nc2N1Cc1ncc(C)c(OC)c1C , Heat shock protein HSP 90-alpha (Homo sapiens, UniProt P07900), IC50 recorded as 14800 nM

Case COc1c(C)cnc(CN2CC(=O)Nc3c(Cl)nc(N)nc32)c1C , Heat shock protein HSP 90-alpha (Homo sapiens, UniProt P07900), IC50 recorded as 100 nM

Case C=Cc1cc2c(cc1Sc1nc(C(N)=O)c(N)n1C)OCO2 , Heat shock protein HSP 90-alpha (Homo sapiens, UniProt P07900), IC50 recorded as 4500 nM

Case CCN1CC[C@@H](NC(=O)c2ccc(N3C4CCC3CC(NC(=O)c3cc(C)c(C(N)=O)cc3C)C4)nc2)C1 (some centres unmarked) , Heat shock protein HSP 90-alpha (Homo sapiens, UniProt P07900), IC50 recorded as < 500 nM

Case COc1c(C)cnc(CN2c3nc(N)ncc3N(CCCc3cccnc3)C(=O)[C@H]2C)c1C , Heat shock protein HSP 90-alpha (Homo sapiens, UniProt P07900), IC50 recorded as 1480 nM

Case COc1cccc(C(=O)N[C@H]2C[C@H]3CC[C@@H](C2)N3c2ccc(C(N)=O)cn2)c1CCCO , Heat shock protein HSP 90-alpha (Homo sapiens, UniProt P07900), IC50 recorded as 1000 to 2000 nM

Case Cn1c(Sc2cc3c(cc2I)OCO3)nc(C(N)=O)c1N , Heat shock protein HSP 90-alpha (Homo sapiens, UniProt P07900), IC50 recorded as 5300 nM
